Test system: HIV-1 single-round infectious reporter virus
Assay: Single-round infectious HIV-1 luciferase reporter virus infection of HeLa CD4 cells
Format: cell-based
Settings: Human immunodeficiency virus 1, HeLa, 72 h
Form field: EC50 (one value per entry).
Give the value in nM but do not write nM after it.

compound	unit_info	EC50
COc1cnc(-n2ccnn2)c2[nH]cc(C(=O)C(=O)N3CCn4c(-c5ccccc5)cnc4C3)c12 [Compound D2]	nM	0.05
O=C(C(=O)N1CCN2C(c3ccccc3)=NCC2C1)c1c[nH]c2c(-n3ccnn3)ncc(F)c12 (stereo not shown)	nM	13
COc1cnc(-n2cnc(C)n2)c2[nH]cc(C(=O)C(=O)N3CCn4c(nc(C)c4-c4ccccn4)C3)c12	nM	1

# context switch: different compound, same EC50
For O=C(C(=O)N1CCn2c(nnc2-c2ccccc2)C1)c1c[nH]c2cccc(F)c12 on HIV-1 single-round infectious reporter virus, measured EC50 was 217

---

Test system: HIV-1 single-round infectious reporter virus
Assay: Single-round infectious HIV-1 luciferase reporter virus infection of HeLa CD4 cells
Type: cell-based
Settings: Human immunodeficiency virus 1, HeLa, 72 h
Method: […] 5. Viral infection was monitored by measuring luciferase expression from viral DNA in the infected cells using a luciferase reporter gene assay kit, as described by the manufacturer (Roche Molecular Biochemicals, Indianapolis, Ind.). […] Luciferase activity was then quantified by measuring luminescence using a Wallac MICROBETA® scintillation counter. […] 7. […] The effective concentration for fifty percent inhibition (EC50) was calculated with the Microsoft Excel Xlfit curve fitting software. […]
Response field label takes 1 (yes) when EC50 is strictly below 0.3 nM and 0 (no) in all other cases.

Below are worked cases with known answers.
structure	label
COc1cnc(-n2cnc(C)n2)c2[nH]cc(C(=O)C(=O)N3CCc4c(c(-c5ccccc5)nn4-c4ccccc4)C3)c12	0 (no)
COc1cnc(-n2cnc(C)n2)c2[nH]cc(C(=O)C(=O)N3CCn4c(nc(C(F)(F)F)c4-c4ccccn4)C3)c12	0 (no)

In: Determine if COc1cnc(-n2cnc(C)n2)c2[nH]cc(C(=O)C(=O)N3CCc4c(cnn4-c4cc(C)nc(C)n4)C3)c12 shows EC50 strictly lower than 0.3 nM.
Out: 0 (no)

In: Determine if COc1cnc(-n2cnc(C)n2)c2[nH]cc(C(=O)C(=O)N3CCc4c(cnn4-c4ccccc4)C3)c12 shows EC50 strictly lower than 0.3 nM.
Out: 1 (yes)

In: Determine if COc1cnc(-n2cnc(C)n2)c2[nH]cc(C(=O)C(=O)N3CCc4c(ncn4-c4ccccc4)C3)c12 shows EC50 strictly lower than 0.3 nM.
Out: 1 (yes)

In: Determine if COc1cnc(-n2cnc(C)n2)c2[nH]cc(C(=O)C(=O)N3CCn4c(cnc4-c4ccccc4)C3)c12 shows EC50 strictly lower than 0.3 nM.
Out: 1 (yes)

In: Determine if COc1cnc(-n2cnc(C)n2)c2[nH]cc(C(=O)C(=O)N3CCn4c(nnc4-c4ccccc4)C3)c12 shows EC50 strictly lower than 0.3 nM.
Out: 0 (no)

In: Determine if COc1cnc(-n2cnc(C)n2)c2[nH]cc(C(=O)C(=O)N3CCn4c(-c5ccncc5)cnc4C3)c12 shows EC50 strictly lower than 0.3 nM.
Out: 0 (no)

In: Determine if COc1cnc(-n2cnc(C)n2)c2[nH]cc(C(=O)C(=O)N3CCn4c(nnc4-c4ccccc4C(N)=O)C3)c12 shows EC50 strictly lower than 0.3 nM.
Out: 0 (no)

In: Determine if COc1cnc(-n2cnc(C)n2)c2[nH]cc(C(=O)C(=O)N3CCn4c(nnc4-c4ccccc4O)C3)c12 shows EC50 strictly lower than 0.3 nM.
Out: 0 (no)

In: Determine if COc1cnc(-n2cnc(C)n2)c2[nH]cc(C(=O)C(=O)N3CCn4c(-c5ccccc5C#N)cnc4C3)c12 shows EC50 strictly lower than 0.3 nM.
Out: 0 (no)

In: Determine if COc1cnc(-n2cnc(C)n2)c2[nH]cc(C(=O)C(=O)N3CCn4c(nnc4-c4ccccc4F)C3)c12 shows EC50 strictly lower than 0.3 nM.
Out: 1 (yes)

In: Determine if COc1cnc(-n2cnc(C)n2)c2[nH]cc(C(=O)C(=O)N3CCn4c(nnc4-c4ccccc4C)C3)c12 shows EC50 strictly lower than 0.3 nM.
Out: 0 (no)

In: Determine if COc1cnc(-c2cc(CO)[nH]n2)c2[nH]cc(C(=O)C(=O)N3CCn4c(-c5ccccc5)cnc4C3)c12 shows EC50 strictly lower than 0.3 nM.
Out: 1 (yes)

---

Test system: HIV-1 single-round infectious reporter virus
Experiment: Single-round infectious HIV-1 luciferase reporter virus infection of HeLa CD4 cells
Type: cell-based
Conditions: Human immunodeficiency virus 1, HeLa, 72 h, read-out: EC50 Group from Table 1
Form field: EC50 (one value per entry).

The examples below pair each entry with its known result.
molecule	EC50
O=C(C(=O)N1CCn2c(nnc2-c2ccccc2)C1)c1c[nH]c2c(-n3ccnn3)ncc(F)c12	< 500 nM
COc1cnc(-n2cnc(C)n2)c2[nH]cc(C(=O)C(=O)N3CCn4c(-c5cccnc5)cnc4C3)c12	< 500 nM

EC50 recorded for this molecule, COc1cnc(-n2cnc(C)n2)c2[nH]cc(C(=O)C(=O)N3CCn4c(-c5ccc(O)cc5)cnc4C3)c12 , is < 500 nM

EC50 recorded for this molecule, COc1cnc(-n2cnc(C)n2)c2[nH]cc(C(=O)C(=O)N3CCn4c(nc(Cl)c4-c4ccccc4)C3)c12 , is < 500 nM
